The measurements presented in this section are drawn from ChEMBL document CHEMBL4304785.

tested on: HaCaT; assay: Cytotoxicity against human HaCaT cells; type: functional, cell-based
measurement.label: pIC50
Field pIC50 (float): negative decimal logarithm of the concentration in molar.

q: Any idea what its pIC50 is? The compound is COc1cc(/C=C/C(=O)CC(=O)/C=C/c2ccc(O)c(OC)c2)ccc1O
a: 4.89

###

system: CCD-841CoN; test: Cytotoxicity against human CRL1790 cells; format: functional, cell-based
measurement.label: pIC50
Field pIC50 (float): negative decimal logarithm of the concentration in molar.

q: Any idea what its pIC50 is? The compound is COc1cc(/C=C/C(=O)CC(=O)/C=C/c2ccc(O)c(OC)c2)ccc1O
a: 3.98
